target: mouse 11β-hsd1 (Mus musculus); test: Inhibition of murine 11β-hsd1-dependent oxoreduction of cortisone in HEK-293 cell lysates; conditions: mouse ortholog, 200 nM cortisone, 10 min, 37°C; read-out: IC50, mouse 11β-hsd1-dependent conversion of cortisone to cortisol
Sequence (P50172 whole entry): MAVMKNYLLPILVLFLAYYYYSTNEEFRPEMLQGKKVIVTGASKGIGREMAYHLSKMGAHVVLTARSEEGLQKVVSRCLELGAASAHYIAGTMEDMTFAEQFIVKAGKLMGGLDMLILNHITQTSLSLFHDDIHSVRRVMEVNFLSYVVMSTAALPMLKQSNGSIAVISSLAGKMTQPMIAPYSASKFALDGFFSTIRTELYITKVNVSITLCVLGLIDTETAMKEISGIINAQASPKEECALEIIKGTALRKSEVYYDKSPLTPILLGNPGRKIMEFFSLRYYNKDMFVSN
Value kind: IC50 (nM)

INSERT INTO results (compound, value_kind, value) VALUES
  ('CC(CO)CCC[C@@H](C)[C@H]1CC[C@H]2[C@@H]3[C@@H](O)C=C4C[C@@H](O)CC[C@]4(C)[C@H]3CC[C@]12C (stereo partly drawn) [7β27OHC, 7β,27-dihydroxycholesterol]', 'IC50', 66),
  ('CC(CO)CCC[C@@H](C)[C@H]1CC[C@H]2[C@@H]3C(=O)C=C4C[C@@H](O)CC[C@]4(C)[C@H]3CC[C@]12C (some centres unmarked) [7k27OHC, 7-keto,27-hydroxycholesterol]', 'IC50', 36);

* * *

molecular target: human 11β-HSD1 (Homo sapiens); construct: expressed in transfected cells; assay: Inhibition of 11β-HSD1-dependent oxoreduction of cortisone in HEK-293 cell lysates; type: biochemical; conditions: human enzyme, 200 nM cortisone, 10 min, 37°C; read-out: IC50, 11β-HSD1-dependent conversion of cortisone to cortisol
Sequence (P28845 whole entry): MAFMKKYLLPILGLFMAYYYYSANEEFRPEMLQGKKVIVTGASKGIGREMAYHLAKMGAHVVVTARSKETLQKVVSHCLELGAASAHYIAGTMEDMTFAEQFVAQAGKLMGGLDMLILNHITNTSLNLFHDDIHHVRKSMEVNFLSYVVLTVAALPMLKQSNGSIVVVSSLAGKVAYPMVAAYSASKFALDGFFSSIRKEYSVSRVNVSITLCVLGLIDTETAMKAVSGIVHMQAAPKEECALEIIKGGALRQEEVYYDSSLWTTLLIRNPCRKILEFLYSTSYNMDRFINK
Value kind: IC50 (nM)

INSERT INTO measurements (compound, value_kind, value) VALUES
  ('CC(CO)CCC[C@@H](C)[C@H]1CC[C@H]2[C@@H]3C(=O)C=C4C[C@@H](O)CC[C@]4(C)[C@H]3CC[C@]12C (stereo partly shown) [7k27OHC, 7-keto,27-hydroxycholesterol]', 'IC50', 357);
